Origin of measurements: ChEMBL document CHEMBL3808373

test: Ratio of drug level in brain to plasma in rat; assay type: ADME, cell-free; conditions: read-out: BPR
ATTRIBUTE_MEASURED: Kp
Just the number, please.

What value of Kp has been recorded for this entry: FC(F)(F)Oc1ccc(-c2ccc3nnc(C(F)(F)F)n3c2)cc1 5

----------
test: Terminal half life in dog; assay type: ADME, organism-based, Canis lupus familiaris; conditions: in vivo, read-out: beta t1/2 (converted)
ATTRIBUTE_MEASURED: half-life (h)
Expressed in h, but write only the number.

What value of half-life has been recorded for this entry: Cc1noc(Cn2nc3ccc(-c4ccc(OC(F)(F)F)cc4)cn3c2=O)n1 17.3

----------
experiment: Clearance in cynomolgus monkey; assay type: ADME, organism-based, Macaca fascicularis; conditions: in vivo
ATTRIBUTE_MEASURED: clearance (mL/min/kg)
Expressed in mL/min/kg, but write only the number.

What value of clearance has been recorded for this entry: Cc1noc(Cn2nc3ccc(-c4ccc(OC(F)(F)F)cc4)cn3c2=O)n1 7.97

----------
target: Nav1.5 (peak sodium current, use-dependent block) (Homo sapiens); assay: Inhibition of 3 Hz stimulated human Nav1.5alpha expressed in HEK293 cells assessed as use dependent block of peak sodium current at 10 uM with 3 compound additions at 60 sec intervals at holding potential -100 mV incubated for 320 sec after third compound addition followed by second period of 3 Hz stimulation by PatchXpress method relative to control; type: cell-based; details: HEK293 cells expressing human Nav1.5alpha
ATTRIBUTE_MEASURED: inhibition at 320 s, 10 µM (%)
Expressed in %, but write only the number.

# returns recorded inhibition at 320 s, 10 µM (system: Nav1.5 (peak sodium current, use-dependent block) (Homo sapiens)) for Cc1nc(Cn2nc3ccc(-c4ccc(OC(F)(F)F)cc4)cn3c2=O)no1 10

# returns recorded inhibition at 320 s, 10 µM (system: Nav1.5 (peak sodium current, use-dependent block) (Homo sapiens)) for O=c1n(Cc2noc(CO)n2)nc2ccc(-c3ccc(Oc4ccc(F)cc4)cc3)cn12 21

# returns recorded inhibition at 320 s, 10 µM (system: Nav1.5 (peak sodium current, use-dependent block) (Homo sapiens)) for O=c1[nH]nc2ccc(-c3ccc(OC(F)(F)F)cc3)cn12 24

# returns recorded inhibition at 320 s, 10 µM (system: Nav1.5 (peak sodium current, use-dependent block) (Homo sapiens)) for Cc1noc(Cn2nc3ccc(-c4ccc(OC(F)(F)F)cc4)cn3c2=O)n1 10

----------
assay: Clearance in rat; type: ADME, organism-based; settings: in vivo
ATTRIBUTE_MEASURED: clearance
Quick note: unit goes after the number.

What value of clearance has been recorded for this entry: Cc1noc(Cn2nc3ccc(-c4ccc(OC(F)(F)F)cc4)cn3c2=O)n1 0.719 L/h/kg

----------
assay: Oral bioavailability in rat; format: ADME, organism-based; conditions: in vivo
ATTRIBUTE_MEASURED: bioavailability
Quick note: unit goes after the number.

What value of bioavailability has been recorded for this entry: Cc1noc(Cn2nc3ccc(-c4ccc(OC(F)(F)F)cc4)cn3c2=O)n1 44.3%

----------
biological target: Nav1.5 (peak sodium current, use-dependent block) (Homo sapiens, UniProt Q14524); assay: Inhibition of 3 Hz stimulated human Nav1.5alpha expressed in HEK293 cells assessed as use dependent block of peak sodium current at 0.3 uM with 3 compound additions at 60 sec intervals at holding potential -100 mV incubated for 320 sec after third compound addition followed by second period of 3 Hz stimulation by PatchXpress method relative to control; assay type: cell-based; conditions: HEK293 cells expressing human Nav1.5alpha
Sequence (Q14524 whole entry): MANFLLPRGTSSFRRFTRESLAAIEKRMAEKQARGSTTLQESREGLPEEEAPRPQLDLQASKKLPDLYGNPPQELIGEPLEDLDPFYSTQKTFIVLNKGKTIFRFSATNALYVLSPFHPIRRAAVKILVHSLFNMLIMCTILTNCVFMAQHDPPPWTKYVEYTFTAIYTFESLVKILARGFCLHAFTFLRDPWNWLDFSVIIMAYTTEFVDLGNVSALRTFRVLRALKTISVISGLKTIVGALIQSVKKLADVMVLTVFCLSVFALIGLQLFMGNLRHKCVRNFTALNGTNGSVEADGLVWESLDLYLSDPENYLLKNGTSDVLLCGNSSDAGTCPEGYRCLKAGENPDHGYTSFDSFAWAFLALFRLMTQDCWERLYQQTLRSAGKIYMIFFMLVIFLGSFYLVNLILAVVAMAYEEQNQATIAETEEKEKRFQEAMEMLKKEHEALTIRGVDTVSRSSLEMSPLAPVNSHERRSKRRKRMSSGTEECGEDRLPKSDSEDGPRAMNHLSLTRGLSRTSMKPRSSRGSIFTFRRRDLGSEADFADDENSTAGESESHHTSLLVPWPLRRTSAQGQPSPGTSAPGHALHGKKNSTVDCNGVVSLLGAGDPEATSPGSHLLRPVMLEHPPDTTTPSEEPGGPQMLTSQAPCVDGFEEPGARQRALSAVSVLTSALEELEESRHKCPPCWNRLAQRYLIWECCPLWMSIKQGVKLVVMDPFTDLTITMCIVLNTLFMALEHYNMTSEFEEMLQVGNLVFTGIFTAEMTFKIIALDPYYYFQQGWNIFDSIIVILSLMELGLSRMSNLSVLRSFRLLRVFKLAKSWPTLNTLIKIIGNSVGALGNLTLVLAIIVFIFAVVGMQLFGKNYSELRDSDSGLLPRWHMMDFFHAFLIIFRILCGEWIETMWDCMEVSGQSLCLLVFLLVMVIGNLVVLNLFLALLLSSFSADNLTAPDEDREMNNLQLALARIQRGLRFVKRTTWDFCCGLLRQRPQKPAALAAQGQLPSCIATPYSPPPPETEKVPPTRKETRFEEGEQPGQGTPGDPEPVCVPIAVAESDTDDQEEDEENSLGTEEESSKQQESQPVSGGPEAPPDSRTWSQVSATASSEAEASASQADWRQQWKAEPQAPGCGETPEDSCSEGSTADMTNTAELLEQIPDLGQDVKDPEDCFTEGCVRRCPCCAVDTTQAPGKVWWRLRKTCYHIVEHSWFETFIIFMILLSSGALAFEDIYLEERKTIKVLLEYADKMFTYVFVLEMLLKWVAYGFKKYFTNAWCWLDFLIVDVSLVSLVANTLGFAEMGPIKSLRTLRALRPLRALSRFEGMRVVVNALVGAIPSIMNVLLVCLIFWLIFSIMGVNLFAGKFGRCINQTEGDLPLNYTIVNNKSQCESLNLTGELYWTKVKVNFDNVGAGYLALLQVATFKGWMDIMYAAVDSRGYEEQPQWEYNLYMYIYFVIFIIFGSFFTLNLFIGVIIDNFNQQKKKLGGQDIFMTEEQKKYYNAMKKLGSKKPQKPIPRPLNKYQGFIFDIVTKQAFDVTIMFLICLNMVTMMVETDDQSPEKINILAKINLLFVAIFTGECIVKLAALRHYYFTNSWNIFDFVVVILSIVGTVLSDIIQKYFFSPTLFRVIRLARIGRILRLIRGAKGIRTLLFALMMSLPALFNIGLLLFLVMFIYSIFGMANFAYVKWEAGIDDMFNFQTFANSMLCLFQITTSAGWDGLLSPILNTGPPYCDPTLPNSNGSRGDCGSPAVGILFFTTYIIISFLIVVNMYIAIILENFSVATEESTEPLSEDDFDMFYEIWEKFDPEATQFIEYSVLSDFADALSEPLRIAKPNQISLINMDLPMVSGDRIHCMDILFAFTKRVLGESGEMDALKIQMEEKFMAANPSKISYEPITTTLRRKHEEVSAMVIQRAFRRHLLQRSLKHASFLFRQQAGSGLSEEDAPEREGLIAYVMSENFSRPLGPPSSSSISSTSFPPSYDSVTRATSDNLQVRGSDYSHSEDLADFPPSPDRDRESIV
ATTRIBUTE_MEASURED: inhibition at 320 s, 0.3 µM (%)
Expressed in %, but write only the number.

What value of inhibition at 320 s, 0.3 µM has been recorded for this entry: Cc1noc(Cn2nc3ccc(-c4ccc(Oc5ccc(F)cc5)cc4)cn3c2=O)n1 33

----------
assay: Half life in human microsomes; assay type: ADME, Microsome
Field: log10(half-life). Provide a value for each of the molecules that follow.
Please keep in mind that the values are log10 of half-life expressed in h.

What value of log10(half-life) has been recorded for this entry: Cc1nc(Cn2nc3ccc(-c4ccc(Oc5ccc(F)cc5)cc4)cn3c2=O)no1 0.54

What value of log10(half-life) has been recorded for this entry: O=c1n(Cc2nnc(C3CC3)o2)nc2ccc(-c3ccc(Oc4ccc(F)cc4)cc3)cn12 0.82

What value of log10(half-life) has been recorded for this entry: Cc1noc(Cn2nc3ccc(-c4ccc(Oc5ccc(Cl)cc5)cc4)cn3c2=O)n1 -0.12

What value of log10(half-life) has been recorded for this entry: O=c1n(Cc2noc(CO)n2)nc2ccc(-c3ccc(Oc4ccc(F)cc4)cc3)cn12 0.13

What value of log10(half-life) has been recorded for this entry: O=c1n(Cc2nc(C3CC3)co2)nc2ccc(-c3ccc(OC(F)(F)F)cc3)cn12 -0.19

----------
target: Sodium channel protein type 5 subunit alpha (Homo sapiens); assay: Inhibition of 0.1 Hz stimulated human Nav1.5alpha expressed in HEK293 cells assessed as inhibition of late sodium current with 3 compound additions for 7 to 8 mins at holding potential -120 mV in presence of late sodium current activator tefluthrin/ATX2 measured immediately after third compound addition by PatchXpress method; type: cell-based
Sequence (Q14524 whole entry): as above
pIC50: −log10 of the molar value.
Entry flag: TRUE if pIC50 reaches 3; FALSE if it does not.

Is pIC50 at least 3? Consider O=c1n(Cc2nnc(C3CC3)o2)nc2ccc(-c3ccc(Oc4ccc(F)cc4)cc3)cn12 TRUE

Is pIC50 at least 3? Consider Cc1cnc(Cn2nc3ccc(-c4ccc(OC(F)(F)F)cc4)cn3c2=O)o1 TRUE

Is pIC50 at least 3? Consider O=c1[nH]nc2ccc(-c3ccc(Oc4ccc(F)cc4)cc3)cn12 FALSE

Is pIC50 at least 3? Consider Cc1nc(Cn2nc3ccc(-c4ccc(Oc5ccc(F)cc5)cc4)cn3c2=O)no1 TRUE

Is pIC50 at least 3? Consider Cc1noc(Cn2nc3ccc(-c4ccc(Oc5ccc(F)cc5)cc4)cn3c2=O)n1 TRUE

----------
target: Sodium channel protein type 1 subunit alpha (Homo sapiens, UniProt P35498); assay: Inhibition of 10 Hz stimulated Nav1.1 (unknown origin) assessed as inhibition of peak sodium current at 10 uM by automated patch clamp method relative to control
Field: inhibition. Provide a value for each of the molecules that follow.
Expressed in %, but write only the number.

What value of inhibition has been recorded for this entry: Cc1nc(Cn2nc3ccc(-c4ccc(OC(F)(F)F)cc4)cn3c2=O)no1 27

What value of inhibition has been recorded for this entry: O=c1[nH]nc2ccc(-c3ccc(Oc4ccc(F)cc4)cc3)cn12 40

What value of inhibition has been recorded for this entry: Cc1noc(Cn2nc3ccc(-c4ccc(OC(F)(F)F)cc4)cn3c2=O)n1 8

What value of inhibition has been recorded for this entry: Cc1cnc(Cn2nc3ccc(-c4ccc(OC(F)(F)F)cc4)cn3c2=O)o1 44
